System: MS2 coat protein
PROCEDURE_TEXT: apparent Kd, MS2 coat protein; higher = weaker binding; RNA-MaP array
ASSAY_CONDITIONS: ligand present: tryptophan; designed as: OFF switch for tryptophan
Hi, to clarify the labels: true covers apparent Kd from 30 nM upward, false covers anything below 30 nM.

Examples from the recorded data:
# input Check this sequence for apparent Kd at or above 30 nM: UGGAGAUAGACGGCCGCCACUAACAUGAGGAUCACCCAUGUCGUCACGAAUGGAUGGCCCUAGAAUAGGACCGGGUCCGGAUUCA
# output true

# input Check this sequence for apparent Kd at or above 30 nM: UUUAACAAGAACGUCCUGAGUGACAAGCUACGAGGACCGGUACGGCCGCCACUCGUACCAAAACAUGAGGAUCACCCAUGUUAAA
# output false

# input Check this sequence for apparent Kd at or above 30 nM: UUAAAGGCACCUCAUGGGACUAUAAACCCGCGAGGACCGGUACGGCCGCCACUCGAAUAUCAACAUGAGGAUCACCCAUGUGGUU
# output true

# input Check this sequence for apparent Kd at or above 30 nM: AUCAUCAGUUCGGCCGCCACUGUUUGGCACAGUUGUAUCGUACAUGAGGAUCACCCAUGUCACCACAGGACCGGGAACGCCGUCG
# output false

# input Check this sequence for apparent Kd at or above 30 nM: CUUGUGCUGACGGCCGCCACUUUAUGGGAGUCCUGUUCUGAUUGAUACAUGAGGAUCACCCAUGUAAGGACCGGGUCGUACCAUA
# output false

Further cases:
# input Check this sequence for apparent Kd at or above 30 nM: UCGCCAUUGACGGCCGCCACUCAAUGGUCUUCUCUGAACAUAAUUAACAUGAGGAUCACCCAUGUGAGGACCGGGUCGGUUAGAC
# output true

* * *

System: MS2 coat protein
PROCEDURE_TEXT: apparent Kd, MS2 coat protein; higher = weaker binding; RNA-MaP array
ASSAY_CONDITIONS: ligand present: flavin mononucleotide; designed as: ON switch for flavin mononucleotide
apparent Kd by entry:
Field format: number, assumed nM, no unit text.

# input apparent Kd for CGCUAAGAGCGGCACCUCCACAUGAGGAUCACCCAUGUUUGAAGAAGGCCAAUUUACGUAAGACUGGAGGAUAUUCAGGAGAGU ?
# output 5.9

Further cases:
# input apparent Kd for AUCGCGACCCAGAAGGGAAGUCGGUGAAGCGGUUCAGGAUAUGGGCAGAGGACAUGAGGAUCACCCAUGUGCAUGUAUUCGGCA ?
# output 13.7

# input apparent Kd for GGGUUAAAGCAGAAGGGUUACGGACAAAAUUAAACAGGAUAUGCCGUAAUACAUGAGGAUCACCCAUGUCAUACGUCAUCAGGG ?
# output 16

* * *

System: MS2 coat protein
PROCEDURE_TEXT: apparent Kd, MS2 coat protein; higher = weaker binding; RNA-MaP array; FMN 200 µM where present
ASSAY_CONDITIONS: designed as: OFF switch for flavin mononucleotide; no ligand
Classification by apparent Kd follows these ranges: low: < 10 nM; intermediate: ≥ 10 nM and < 40 nM; high: ≥ 40 nM

Examples from the recorded data:
# input Quick check: band for GCUAGGAAUGUCAGGAUAUGCAGAACCUUGGUUCUGCAGAAGGGACAUGAGGAUCACCCAUGUGCUAACCUAGC
# output intermediate

# input Quick check: band for GCAAAAGUCCUGAGGGUAGGAGACAGAAGGGCACCGGGAUCACUCCACAUGAGGAUCACCCAUGUGCAGGAUAUGUCGGCUGAA
# output intermediate

# input Quick check: band for GUUUCACAUGAGGAUCACCCAUGUGAGGAUAUAGAUUUGUUAACCGUAGUUAAUAGAUCUAGAAGGCGCGUGAU
# output high

# input Quick check: band for GGAUAGGACAGAGGAUAUACGUGCUAGAGAUACUAGCAAAAUUUCCUCACAUGAGGAUCACCCAUGUAGAAGGCUGUCCAAUCG
# output intermediate

# input Quick check: band for CACGCCUAGGAGAAGGGCCCACUAUAGGGUAAAUGCUGUUCUCACAUGAGGAUCACCCAUGUGCGGCAGGAUAUCCACGCGUAA
# output low

# input Quick check: band for CAAAGACAAGCAGGAUAUCACAUGAGGAUCACCCAUGUCGGGAUCACCUGAGAGUGUUUAUUAAGUGAGAAGGGCUAGAUCACC
# output intermediate

# input Quick check: band for AAUUUACAUGAGGAUCACCCAUGUGAGGAUAUGAUACUAUGUACUUCGGUACAUAGUAUCAGAAGGCAUGUGGA
# output high

# input Quick check: band for GCGUGGUUCUAGAAGGUGCUAGCGAUAAGCUAGCAAGGAUAUAGACAUGAGGAUCACCCAUGUCUUAAUGAAAUGGACACACGC
# output low

Further cases:
# input Quick check: band for AAGGUACGAGGAUAUACAUAGAUACAGAUACAUGUGGAUGUACAUGAGGAUCACCCAUGUAGAAGGCGUAUAUA
# output high
